Kindly state TGI for each of the entries shown.
tested on: SK-OV-3 ovarian; assay: NCI tumour cell line growth inhibition, 48 h

{"MOLECULE": "C=C[C@]1(C)C=C2C(=O)[C@@]3(O)OC[C@@]4(CCCC(C)(C)C43O)C2(O)C(O)C1 (stereo partly drawn)", "MEASURED TARGET": "SK-OV-3 ovarian", "TGI": "69.6 µM"}
{"MOLECULE": "Cc1cc(C2(c3cc(C)c(O)c(C(=O)O)c3)OS(=O)(=O)c3ccccc32)cc(C(=O)O)c1O", "MEASURED TARGET": "SK-OV-3 ovarian", "TGI": "> 100 µM"}
{"MOLECULE": "O=[N+]([O-])c1ccc(CS(=O)Cc2ccccc2)cc1 (stereo not drawn)", "MEASURED TARGET": "SK-OV-3 ovarian", "TGI": "> 100 µM"}
{"MOLECULE": "O=c1[nH]cnc2c(C3OC(CO)C(O)C3O)scc12 (stereo not drawn)", "MEASURED TARGET": "SK-OV-3 ovarian", "TGI": "> 100 µM"}
{"MOLECULE": "CC(C)=CCC/C(C)=C/Cc1c(O)ccc2c1[nH]c1cc(O)c(C)cc12", "MEASURED TARGET": "SK-OV-3 ovarian", "TGI": "> 25 µM"}
{"MOLECULE": "COc1ccc(NCC(=O)Nn2c(C)nc3ccc(S(=O)(=O)Nc4ccc(OC)cc4)cc3c2=O)cc1", "MEASURED TARGET": "SK-OV-3 ovarian", "TGI": "> 100 µM"}
{"MOLECULE": "O=C(NCCNCCO)N/N=C/c1ccc([N+](=O)[O-])cc1", "MEASURED TARGET": "SK-OV-3 ovarian", "TGI": "> 100 µM"}
{"MOLECULE": "CCN1C(=O)N(CC)C2C1NN=c1s/c(=C3\\C(=O)N(C)c4ccccc43)c(=O)n12 (stereo not drawn)", "MEASURED TARGET": "SK-OV-3 ovarian", "TGI": "> 100 µM"}
{"MOLECULE": "CC1=CC(=O)C(C(C)=Nc2ccccc2Cl)C(=O)O1 (stereo not drawn)", "MEASURED TARGET": "SK-OV-3 ovarian", "TGI": "> 100 µM"}
{"MOLECULE": "CC(C)(Br)C(=O)/C=C/c1ccccc1", "MEASURED TARGET": "SK-OV-3 ovarian", "TGI": "> 83.1 µM"}

Batch request: TGI for each of the following molecules.
1. CC(C)(C)OC(=O)CN1CCNCCN(CC(=O)OC(C)(C)C)CC1
2. COc1ccc2c(C(=O)O)cc3cc(OC)c(OC)cc3c2c1
3. CCOC(=O)CN1CCSC1=NC#N
4. CCOC(=O)N1CCN(S(=O)(=O)c2oc(-c3ccc(Cl)cc3)nc2C#N)CC1
5. NC1=Nc2ccccc2Sc2nnc(-c3ccc(Cl)cc3)n21
6. Cc1cccc(C(C)(C)C)c1NC(=O)C(=O)C(c1cnc2ccccc2n1)[N+](=O)[O-] (stereo not drawn)
7. CC1OC(c2ccccc2)=CC(OCc2ccccc2)[C@H]1OCc1ccccc1 (stereo partly drawn)
8. COc1ccc2c(c1)C(=O)c1c-2n(CCCN2CCOCC2)c(=O)c2ccccc12

["> 100 µM", "> 100 µM", "> 100 µM", "> 100 µM", "> 100 µM", "> 100 µM", "> 10 µM", "12.1 µM"]

Batch request: TGI for each of the following molecules.
1. Clc1ncnc2c1nc(C#Cc1ccccc1)n2Cc1ccccc1
2. COc1cnc2c(c1)C(=O)c1c-2n(CCCN2CCCC2)c(=O)c2cc(Cl)ccc12
3. CCCCCCCCCCCCC(=O)[O-].CCCCCCCCCCCCC(=O)[O-].CCCCCCCCCCCCC(=O)[O-].CCCCCCCCCCCCC(=O)[O-].[Mo+2].[Mo+2]

["> 100 µM", "10.5 µM", "59.9 µM"]

Batch request: TGI for each of the following molecules.
1. N/N=C(\Cc1ccccc1)NN=C(N)N
2. C1=NCCOCCN=Cc2ccccc2OCc2cccc(n2)COc2ccccc21
3. CCCCCc1c(C)[nH]c(/C=C2\N=C(c3ccc[nH]3)C=C2Oc2ccc(Cl)cc2)c1C
4. CC1=NN(C(=O)c2ccc(Cl)cc2)C(=O)/C1=C/c1cccc([N+](=O)[O-])c1
5. CSc1nc(-c2ccccc2)c2c(n1)-c1ccccc1CC2

> 100 µM
> 25 µM
17.6 µM
> 100 µM
> 100 µM
